Test system: affinity purified β2GPI-dependent antiphospholipid antibody
Experiment: Competitive inhibition ELISA: recombinant β2GPI proteins compete for antibody binding to coated full length recombinant β2GPI
Set-up: species or system human
Conditions: Ab 6701
METRIC_NAME: Max (maximum inhibition observed at concentrations tested) (%)
Please reply with the bare figure in % and do not write the unit itself.

MOLECULE | MEASUREMENT
--345: recombinant β2GPI deletion mutant with domains 3, 4, 5 (protein) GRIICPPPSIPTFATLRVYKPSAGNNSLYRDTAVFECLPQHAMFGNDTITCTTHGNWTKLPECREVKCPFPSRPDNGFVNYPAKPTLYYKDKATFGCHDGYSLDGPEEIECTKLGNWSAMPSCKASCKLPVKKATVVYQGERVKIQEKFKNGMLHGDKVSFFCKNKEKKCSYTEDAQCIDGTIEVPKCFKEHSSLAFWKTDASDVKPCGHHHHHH | 20
1234-: recombinant β2GPI deletion mutant with domains 1, 2, 3, 4 (protein) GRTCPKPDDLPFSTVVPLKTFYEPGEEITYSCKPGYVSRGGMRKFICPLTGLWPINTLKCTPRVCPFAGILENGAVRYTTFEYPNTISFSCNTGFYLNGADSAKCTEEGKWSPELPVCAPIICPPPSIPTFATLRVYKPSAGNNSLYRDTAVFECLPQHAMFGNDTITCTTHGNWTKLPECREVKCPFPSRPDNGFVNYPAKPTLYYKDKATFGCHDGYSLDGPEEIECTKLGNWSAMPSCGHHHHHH | 30
1----: recombinant β2GPI protein with domain 1 only (SEQ ID NO:4 region), His6 tail (protein) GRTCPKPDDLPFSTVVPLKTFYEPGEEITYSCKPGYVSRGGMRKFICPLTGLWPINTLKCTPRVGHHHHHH | 80

Could you now look at the following molecule, please?
Fill in the blank: the reported Max (maximum inhibition observed at concentrations tested) of -2345: recombinant β2GPI deletion mutant with domains 2-5 (protein) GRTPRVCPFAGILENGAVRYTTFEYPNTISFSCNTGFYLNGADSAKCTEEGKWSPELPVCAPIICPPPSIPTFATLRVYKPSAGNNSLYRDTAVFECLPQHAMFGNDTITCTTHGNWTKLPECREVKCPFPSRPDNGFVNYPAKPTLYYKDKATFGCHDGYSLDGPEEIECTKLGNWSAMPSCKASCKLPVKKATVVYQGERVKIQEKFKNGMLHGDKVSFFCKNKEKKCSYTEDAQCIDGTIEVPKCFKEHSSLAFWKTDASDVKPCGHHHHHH is ____.
10
